tested on: HCV replicon genotype 3a; assay: Cell-based HCV replicon assay (TaqMan-based), genotype 3a; details: Hepatitis C virus, 72 h, read-out: Genotype EC50 (nM) 3a
Test readout: EC50

1) COC(=O)N[C@H](C(=O)N1C(c2ncc(-c3ccc4c(c3)-c3ccc(-c5cnc([C@@H]6[C@H]7CC[C@H](C7)N6C(=O)[C@@H](NC(=O)OC)C(C)C)[nH]5)cc3-4)[nH]2)[C@H]2CC[C@@H]1C2)C(C)C (stereo partly drawn); < 0.19 nM
2) COC(=O)N[C@H](C(=O)N1CCC[C@H]1c1ncc(-c2ccc3c(c2)-c2ccc(-c4cnc([C@@H]5CCCN5C(=O)[C@@H](NC(=O)OC)C(C)C)[nH]4)cc2-3)[nH]1)C(C)C; < 0.19 nM

Lab note: next compound to report on.
Could you please provide reported EC50 for COC(=O)N[C@H](C(=O)N1CC(F)(F)C[C@H]1c1ncc(-c2ccc3c(c2)-c2ccc(-c4cnc([C@@H]5CC(F)(F)CN5C(=O)[C@@H](NC(=O)OC)C(C)C)[nH]4)cc2-3)[nH]1)C(C)C ? Thanks!
0.022 nM
